# Test description: Primary qHTS for delayed death inhibitors of the malarial parasite plastid, 96 hour incubation
# Experimental conditions: P. falciparum luciferase reporter growth; series mostly up to 28.7 µM
In all, about 320,000 compounds went through this assay and about 22,000 (6.9%) were called active. Another 27% or so got no clear call; they are omitted. Calls follow the shape of the dose curve; as a rule, active = well fitted inhibition curve with a large enough effect; inconclusive = small, poorly fitted or top-dose-only effect, or another doubt; inactive = no such curve, though single readings can be large or run the other way. What follows is part of a selection rich in actives, with near analogues and random picks from the rest.
Classes used: active, inactive

{"Compound": "O=C(NCc1ccco1)c1cccn2c(=O)c3c4c(sc3nc12)CCCC4", "Cat": "inactive"}
{"Compound": "CCc1nn(CCCC(=O)NC(C)c2ccccc2)c(=O)c2cc3occc3n12 (configuration not stated)", "Cat": "inactive"}
{"Compound": "CCn1c(=N)c(C(=O)NCCCOC)cc2c(=O)n3cccc(C)c3nc21", "Cat": "inactive"}
{"Compound": "Cc1ccccc1OCC(=O)NNC(=O)c1cc(S(=O)(=O)N(C)C)ccc1N1CCCC1", "Cat": "inactive"}
{"Compound": "O=C(CN1CCCCC1)NC(=O)Nc1ccccc1F", "Cat": "inactive"}
{"Compound": "CCOc1ccc(OCC(=O)Nc2c3c(nn2C(C)(C)C)CS(=O)(=O)C3)cc1", "Cat": "inactive"}
{"Compound": "CCc1nnc(NC(=O)Cc2cccs2)s1", "Cat": "inactive"}
{"Compound": "COc1cccc(CC(=O)Nc2nc(-c3ccc(OC)c(OC)c3)cs2)c1", "Cat": "inactive"}
{"Compound": "O=[N+]([O-])c1ccc2nc(-c3ccccn3)[nH]c2c1", "Cat": "inactive"}
{"Compound": "COCC(C)OC(=O)c1c(N)n(CCCN2CCOCC2)c2nc3ccccc3nc12 (configuration not stated)", "Cat": "inactive"}
{"Compound": "Cc1ccc(-c2noc(-c3ccccc3C(=O)NCC3CCCO3)n2)cc1 (configuration not stated)", "Cat": "inactive"}
{"Compound": "Cc1nonc1C1CCCN1C(=O)c1cc(COc2cccc(C(F)(F)F)c2)on1 (configuration not stated)", "Cat": "inactive"}
{"Compound": "COc1ccc(C(=O)CCC(=O)Nc2ccc(Cl)cc2)cc1", "Cat": "inactive"}
{"Compound": "Cc1cccn2c(=O)c3cc(C#N)c(=O)n(CCCN4CCOCC4)c3nc12", "Cat": "active"}
{"Compound": "COc1ccccc1C(=O)N1C(CC(=O)Nc2ccccc2C)C(=O)NC2CCCCC21 (configuration not stated)", "Cat": "inactive"}
{"Compound": "CC1(C)NC(=O)N(CC(=O)Nc2cc(C(F)(F)F)cc(C(F)(F)F)c2)C1=O", "Cat": "inactive"}
{"Compound": "CC1CCN(C(=O)c2ccc3c(c2)NC(=O)CN3)CC1", "Cat": "inactive"}
